- protocol: blockers of RIG-like receptor reporter activation – cell-based, Sendai virus stimulus, luciferase, 10K MLSCN set, TLR/RLR signaling modifier project, primary screen (AID 602276);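 note: firefly luciferase from ISG56 promoter only with Renilla not read in this screen; 0% = Sendai virus plus DMSO and 100% = medium plus DMSO without virus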
- runParameters: HEK293 RL24 IRF3 luciferase reporter, at 10 µM, stronger effect = higher value

{"molecule": "O=C(CSc1nc2ccccc2o1)Nc1ccccc1", "inhibition, %": -21.3}
{"molecule": "CC(=O)Nc1ccc(S(=O)(=O)NCC(C)NS(=O)(=O)c2ccc(NC(C)=O)cc2)cc1 (stereo unspecified)", "inhibition, %": -11.9}
{"molecule": "COc1ccc(N2CCN(c3oc(COc4ccccc4Cl)nc3C#N)CC2)cc1", "inhibition, %": 2.05}
{"molecule": "CCn1c(SCC(=O)Nc2ccc(Cl)cc2)nnc1C1CC1", "inhibition, %": 4.41}
{"molecule": "COc1ccccc1NC(=O)Cc1noc(CSc2cc(C)c3ccccc3n2)n1", "inhibition, %": 6.32}
{"molecule": "CC(CN(C)Cc1ccccc1)OC(=O)c1ccc2c(c1)OCCO2 (stereo unspecified)", "inhibition, %": 8.96}
{"molecule": "Cn1c(SCC(=O)c2cc3ccccc3o2)nnc1-c1ccccc1", "inhibition, %": 10.2}
{"molecule": "COc1ccc(C2c3c(oc4ccccc4c3=O)C(=O)N2Cc2ccncc2)cc1OC (stereo unspecified)", "inhibition, %": 14.3}
{"molecule": "CC(=O)N1CCc2cc(Br)cc(S(=O)(=O)NCCCN3CCCC(C)C3)c21 (stereo unspecified)", "inhibition, %": -7.41}
{"molecule": "Cc1ccc(OCc2nnc(SCC(=O)N3CCOCC3)n2C)cc1", "inhibition, %": -1.5}
{"molecule": "N#CCCN(C(=O)Nc1ccc(Cl)cc1)c1ccccc1", "inhibition, %": -5.26}
